- Assayed target: T1, Helicoverpa armigera chitin deacetylase (Helicoverpa armigera)
- T1 construct: the tag is not part of the printed entry; also called CDA; target CDA antigen
- T1 chain: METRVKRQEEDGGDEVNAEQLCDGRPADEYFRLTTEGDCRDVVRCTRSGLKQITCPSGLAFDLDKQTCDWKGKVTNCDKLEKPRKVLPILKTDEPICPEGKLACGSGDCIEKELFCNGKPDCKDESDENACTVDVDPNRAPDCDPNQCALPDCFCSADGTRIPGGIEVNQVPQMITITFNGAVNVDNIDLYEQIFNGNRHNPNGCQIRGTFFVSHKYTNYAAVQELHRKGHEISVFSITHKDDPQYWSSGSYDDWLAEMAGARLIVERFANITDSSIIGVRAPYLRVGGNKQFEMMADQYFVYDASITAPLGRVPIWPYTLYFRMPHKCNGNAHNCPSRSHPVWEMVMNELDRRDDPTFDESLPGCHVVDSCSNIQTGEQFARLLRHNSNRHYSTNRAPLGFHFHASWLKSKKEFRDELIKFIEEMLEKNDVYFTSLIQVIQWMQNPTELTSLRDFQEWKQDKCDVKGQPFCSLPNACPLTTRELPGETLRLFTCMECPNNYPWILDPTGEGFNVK
- Assay details: ELISA, plate coated with 10 ug/ml target protein, 2 ug/ml nanobody, anti-VHH-HRP, A450

Binder: CDA05 (VHH, Llama nanobody, His-tagged, expressed in E. coli SHuffle T7; also called CDA5; anti-CDA nanobody CDA05) VHH: QVQLQESGGGLVQPGGSLRLSCTASGRTVSNYGMAWFRQVAGKERAFVAAINNRGDSKYYAESVKGRFTIARDNAKNTVYLQMNVLKPEDTAVYYCAADRRSLVRYEYNYWGQGTQVTVSS
binding result: binds

Binder: CDA01A (VHH, Llama nanobody, His-tagged, expressed in E. coli SHuffle T7; also called CDA1a; anti-CDA nanobody CDA01A) VHH: QVQLQESGGGLVQAGGSLRLSCAASGRTFNTYAMGWFRQAPGKEREFVAAMNRDGSTVLYADSVKGRFAISKDNAKNTGYLQMNSLKPEDTAIYYCAANARYSDYTDGQSFVSWGQGTQVTVSS
binding result: binds

Binder: CDA10 (VHH, Llama nanobody, His-tagged, expressed in E. coli SHuffle T7; also called anti-CDA nanobody CDA10) VHH: QVQLQESGGGLVQTGESLRLSCAASGRTLSSYTMGWFRQAPGKEREIVAASSWSGGRTYYADSVKGRFTMSRNNAENTVYLQMNSLNPEDTAVYYCAADSSRAPRTYNYWGQGTQVTVSS
binding result: binds

Binder: CDA07A (VHH, Llama nanobody, His-tagged, expressed in E. coli SHuffle T7; also called CDA7a; CDA7A) VHH: QVQLQESGGGLVQAGGSLRLSCVASGRTFGNYGLAWFRQPPGKEREFVAAINNRGGNTYYADSVKGRFTISRDNAANTLYLQMSSLKPEDTAVYYCAADRTSLHSYRYTYWGQGTQVTVSS
binding result: binds
